This collection of values is drawn from ChEMBL document CHEMBL5252539.

Measured selectivity ratio by item
- assay summary: Selectivity index, ratio of IC50 for cytostatic activity against human MONO-MAC-6 cells to MIC for antimycobacterial activity against Mycobacterium tuberculosis H37Rv ATCC 27294
- Type: toxicity, cell-based
- condition set: read-out: Selectivity Index
*1 amine or outer side, *2 acyl side, *3 side chain or, on linkers, in order; H or OH if unused. Where a SMILES comes first, the peptide text is derived from it. [ ]: non-standard residue; d: D form. The star is where a group is joined. X2 = C/C(=N\OCC(=O)*)c1ccc(NC(=O)c2cc(Br)ccc2O)cc1; X1 = C/C(=N\OCC(=O)[*:2])c1ccc(N[*:1])cc1; Benzoyl(5-Br-2-OH) = O=C(c1cc(Br)ccc1O)*; Decanoyl = CCCCCCCCCC(=O)*
Provide a numeric answer; units are not to be included.

Below are worked cases with known answers.
{"columns": ["compound", "reported endpoint", "measured"],
 "data": [
  ["C/C(=N\\OCC(=O)NCCCC[C@H](NC(=O)[C@@H]1CCCN1C(=O)[C@H](CCCCN)NC(=O)[C@@H](NC(=O)CNC(=O)[C@H](CCCCNC(=O)CO/N=C(\\C)c1ccc(NC(=O)c2cc(Br)ccc2O)cc1)NC(=O)[C@@H]1CCCN1C(=O)[C@H](CCCCN)NC(=O)[C@@H](NC(=O)[C@H](CCCNC(=N)N)NC(=O)[C@@H]1CCCN1C(=O)[C@H](CCCCN)NC(=O)[C@@H](N)[C@@H](C)O)[C@@H](C)O)[C@@H](C)O)C(=O)NCC(=O)O)c1ccc(NC(=O)c2cc(Br)ccc2O)cc1 (H-TKPRTKPK(X2)GTKPK(X2)G-OH)", "selectivity ratio", 2.9],
  ["CC(=O)c1ccc(NC(=O)c2cc(Br)ccc2O)cc1", "selectivity ratio", 2.5],
  ["O=C(Nc1ccc(C(F)(F)F)cc1)c1cc(Br)ccc1O", "selectivity ratio", 1.4],
  ["O=C(Nc1ccc(Cl)c(Cl)c1)c1cc(Br)ccc1O", "selectivity ratio", 1]
]}

Kindly consider the entry below.
Request: May I ask what selectivity ratio has been recorded for CCCCCCCCCC(=O)NCCCC[C@H](NC(=O)[C@@H]1CCCN1C(=O)[C@H](CCCCN)NC(=O)[C@@H](NC(=O)CO/N=C(\C)c1ccc(NC(=O)c2cc(Br)ccc2O)cc1)[C@@H](C)O)C(=O)NCC(N)=O ({Benzoyl(5-Br-2-OH)}-[X1]TKPK(Decanoyl)G-NH2) ?
Response: 0.4

----------
Recorded selectivity ratio for the following compounds
- assay summary: Selectivity index, ratio of IC50 for cytostatic activity against human MONO-MAC-6 cells to MIC for antimycobacterial activity against Mycobacterium tuberculosis H37Rv ATCC 27294
- Type: toxicity, cell-based
- condition set: read-out: Selectivity Index
// return a plain number; no unit text

{"columns": ["mol smiles", "measured"],
 "data": [
  ["CC(=O)c1ccc(NC(=O)c2cc(Cl)ccc2O)cc1", 1.9]
]}

For the next question, use this compound.
Request: Look up selectivity ratio: O=Cc1ccc(O)c(C(=O)Nc2ccc(C(F)(F)F)cc2)c1
Response: 0.8

----------
- assay summary: Selectivity index, ratio of IC50 for cytostatic activity against human MONO-MAC-6 cells to MIC for antimycobacterial activity against Mycobacterium tuberculosis H37Rv ATCC 27294
- Type: toxicity, cell-based
- condition set: read-out: Selectivity Index
*1 amine or outer side, *2 acyl side, *3 side chain or, on linkers, in order; H or OH if unused. Where a SMILES comes first, the peptide text is derived from it. [ ]: non-standard residue; d: D form. The star is where a group is joined. X1 = C/C(=N\OCC(=O)[*:2])c1ccc(N[*:1])cc1; Benzoyl(5-Br-2-OH) = O=C(c1cc(Br)ccc1O)*; Palmitoyl = CCCCCCCCCCCCCCCC(=O)*
Entries and their selectivity ratio values follow.

Completed entries (count: 3):
{"columns": ["compound", "reported endpoint", "measured"],
 "data": [
  ["C/C(=N\\OCC(=O)N[C@H](C(=O)N[C@@H](CCCCN)C(=O)N1CCC[C@H]1C(=O)N[C@@H](CCCNC(=N)N)C(=O)O)[C@@H](C)O)c1ccc(NC(=O)c2cc(Br)ccc2O)cc1 ({Benzoyl(5-Br-2-OH)}-[X1]TKPR-OH)", "selectivity ratio", "> 4.4"],
  ["CCCCCCCCCCCCCCCC(=O)NCCCC[C@H](NC(=O)[C@@H]1CCCN1C(=O)[C@H](CCCCN)NC(=O)[C@@H](NC(=O)CO/N=C(\\C)c1ccc(NC(=O)c2cc(Br)ccc2O)cc1)[C@@H](C)O)C(=O)NCC(N)=O ({Benzoyl(5-Br-2-OH)}-[X1]TKPK(Palmitoyl)G-NH2)", "selectivity ratio", 0.3],
  ["C/C(=N\\OCC(=O)N[C@H](C(=O)N[C@@H](CCCCN)C(=O)N1CCC[C@H]1C(=O)N[C@@H](CCCCN)C(=O)NCC(N)=O)[C@@H](C)O)c1ccc(NC(=O)c2cc(Br)ccc2O)cc1 ({Benzoyl(5-Br-2-OH)}-[X1]TKPKG-NH2)", "selectivity ratio", "> 9.2"]
]}

Request: # selectivity ratio lookup, item C/C(=N\OCC(=O)N[C@H](C(=O)N[C@@H](CCCCN)C(=O)N1CCC[C@H]1C(=O)N[C@@H](CCCCN)C(=O)NCC(=O)N[C@H](C(=O)N[C@@H](CCCCN)C(=O)N1CCC[C@H]1C(=O)N[C@@H](CCCCN)C(=O)NCC(N)=O)[C@@H](C)O)[C@@H](C)O)c1ccc(NC(=O)c2cc(Br)ccc2O)cc1 ({Benzoyl(5-Br-2-OH)}-[X1]TKPKGTKPKG-NH2)
Response: > 1.1
